# Assayed Target: T1, Recombinant human leptin binding domain (hLBD) (human, UniProt P48357 428-635, biotinylated with Sulfo-NHS-LC-Biotin in the yeast display assays; not labelled when immobilized in the plate binding assay)
# T1 construct: CRH2 sub-domain of the leptin receptor; Prepared in the applicants' laboratory; also called soluble human leptin receptor; CHR2
# T1 sequence (looked up): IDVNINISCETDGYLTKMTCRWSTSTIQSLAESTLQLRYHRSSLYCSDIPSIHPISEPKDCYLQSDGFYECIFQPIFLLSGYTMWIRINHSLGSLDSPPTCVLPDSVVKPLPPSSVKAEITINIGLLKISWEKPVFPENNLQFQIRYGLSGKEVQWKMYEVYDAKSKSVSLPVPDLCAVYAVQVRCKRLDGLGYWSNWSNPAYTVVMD
# Protocol Text: yeast display, flow cytometry titration with biotinylated hLBD (FIG. 4B)
# key: entry, value: Bmax
Endpoint: Bmax (MFI)

Binder	Meas Value
yeast-displayed mouse leptin clone H3 (D23G, L68M, S97F, S132Y) (ligand, UniProt P41160 22-167, looked up, not shown: large carriers; small tags and cut ends, mature; also called H15; H4) VPIQKVQDDTKTLIKTIVTRINGISHTQSVSAKQRVTGLDFIPGLHPILSLSKMDQTLAVYQQVLTSMPSQNVLQIANDLENLRDLLHLLAFSKSCFLPQTSGLQKPESLDGVLEASLYSTEVVALSRLQGYLQDILQQLDVSPEC	1350
yeast-displayed mouse leptin clone H16 (D23G, G112S) (ligand, UniProt P41160 22-167, looked up, not shown: large carriers; small tags and cut ends, mature) VPIQKVQDDTKTLIKTIVTRINGISHTQSVSAKQRVTGLDFIPGLHPILSLSKMDQTLAVYQQVLTSLPSQNVLQIANDLENLRDLLHLLAFSKSCSLPQTSGLQKPESLDSVLEASLYSTEVVALSRLQGSLQDILQQLDVSPEC	550
yeast-displayed mouse leptin clone H12 (S97Y) (ligand, UniProt P41160 22-167, looked up, not shown: large carriers; small tags and cut ends, mature; also called H20; H24) VPIQKVQDDTKTLIKTIVTRINDISHTQSVSAKQRVTGLDFIPGLHPILSLSKMDQTLAVYQQVLTSLPSQNVLQIANDLENLRDLLHLLAFSKSCYLPQTSGLQKPESLDGVLEASLYSTEVVALSRLQGSLQDILQQLDVSPEC	785
yeast-displayed mouse leptin clone H2 (A125T, S132Y) (ligand, UniProt P41160 22-167, looked up, not shown: large carriers; small tags and cut ends, mature) VPIQKVQDDTKTLIKTIVTRINDISHTQSVSAKQRVTGLDFIPGLHPILSLSKMDQTLAVYQQVLTSLPSQNVLQIANDLENLRDLLHLLAFSKSCSLPQTSGLQKPESLDGVLEASLYSTEVVTLSRLQGYLQDILQQLDVSPEC	2570
yeast-displayed mouse leptin clone H6 (D23G, V30D, Y119H) (ligand, UniProt P41160 22-167, looked up, not shown: large carriers; small tags and cut ends, mature) VPIQKVQDDTKTLIKTIVTRINGISHTQSDSAKQRVTGLDFIPGLHPILSLSKMDQTLAVYQQVLTSLPSQNVLQIANDLENLRDLLHLLAFSKSCSLPQTSGLQKPESLDGVLEASLHSTEVVALSRLQGSLQDILQQLDVSPEC	1290
yeast-displayed mouse leptin clone H22 (T12I) (ligand, UniProt P41160 22-167, looked up, not shown: large carriers; small tags and cut ends, mature) VPIQKVQDDTKILIKTIVTRINDISHTQSVSAKQRVTGLDFIPGLHPILSLSKMDQTLAVYQQVLTSLPSQNVLQIANDLENLRDLLHLLAFSKSCSLPQTSGLQKPESLDGVLEASLYSTEVVALSRLQGSLQDILQQLDVSPEC	719
yeast-displayed mouse leptin clone L1 (D23N, Q34L, L114P) (ligand, UniProt P41160 22-167, looked up, not shown: large carriers; small tags and cut ends, mature) VPIQKVQDDTKTLIKTIVTRINNISHTQSVSAKLRVTGLDFIPGLHPILSLSKMDQTLAVYQQVLTSLPSQNVLQIANDLENLRDLLHLLAFSKSCSLPQTSGLQKPESLDGVPEASLYSTEVVALSRLQGSLQDILQQLDVSPEC	1680
